molecular target: Torsin-1A-interacting protein 1 (Homo sapiens) (UniProt Q5JTV8); experiment: LAP1 binders from COS7 cell lysate, primary screen, small-molecule microarray, 635/667 nm fluorescence (AID 1116); details: COS7-hLAP1 lysate binding, 635 nm fluorescence, higher = more signal
Sequence (Q5JTV8 whole entry, looked up): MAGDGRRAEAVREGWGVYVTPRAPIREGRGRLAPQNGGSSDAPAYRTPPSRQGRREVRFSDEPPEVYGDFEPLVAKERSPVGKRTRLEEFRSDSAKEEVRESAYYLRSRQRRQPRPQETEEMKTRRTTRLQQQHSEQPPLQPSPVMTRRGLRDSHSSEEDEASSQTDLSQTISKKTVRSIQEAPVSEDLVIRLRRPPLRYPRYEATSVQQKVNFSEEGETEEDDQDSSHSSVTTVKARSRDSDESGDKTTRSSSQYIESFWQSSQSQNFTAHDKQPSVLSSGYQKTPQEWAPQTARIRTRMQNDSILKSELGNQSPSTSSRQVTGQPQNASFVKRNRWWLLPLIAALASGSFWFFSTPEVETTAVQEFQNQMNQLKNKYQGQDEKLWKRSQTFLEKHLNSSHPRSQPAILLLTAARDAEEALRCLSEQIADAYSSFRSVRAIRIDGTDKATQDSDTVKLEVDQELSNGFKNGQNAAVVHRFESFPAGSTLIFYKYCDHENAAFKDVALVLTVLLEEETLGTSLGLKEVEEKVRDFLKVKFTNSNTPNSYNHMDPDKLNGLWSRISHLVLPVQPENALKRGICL
Listed compounds paired with reported composite z-score
Quick one: just the number, no unit, thanks!

Below, each entry is followed by its recorded composite z-score result.
> print(dat)
                                   compound  measured.number
1  CC(C)(C)OC(=O)CC[C@]1(C(=O)N2CCOCC2)N=C(c2ccc(OCCCO)cc2)O[C@H]1c1ccccc1             1.07
2  CCCCN1CC=CC23O[C@@H]4C=CCOC(=O)[C@@H]4[C@H]2C(=O)N(C(C)CO)[C@@H]3C1=O (stereo partly drawn)           -0.194
3  NC(=O)N1C(=O)C2C(C1=O)C1C=C(CCCO)C2C(c2cccs2)N1Cc1cc2c(cc1Br)OCO2 (stereo not drawn)            0.333
4  CN(C)CCCNC(=O)[C@@H]1c2ccccc2C(=O)N(CC23CC4CC(CC(C4)C2)C3)[C@H]1c1ccc(CO)cc1            0.858
5  CC(C)N1CC=CC23O[C@@H]4C=CCOC(=O)[C@@H]4[C@H]2C(=O)N(C(C)CO)[C@@H]3C1=O (stereo partly drawn)           -0.606
6  CC(=O)n1cc(C(O)C2C=CC3C(=O)N(c4ccccc4)C(=O)C3N2Nc2ccccc2)c2ccccc21 (stereo not drawn)             1.09
7  O=C(CS)NCCCCCCNC(=O)[C@H]1C[C@H]2C(=O)N[C@@H](Cc3ccccc3)C(=O)N2[C@H]1c1cccc(OCCO)c1             1.38

Turning to the following compound.
Noted for C=CC[C@@]1(C(=O)N2CCCCC2)N=C(c2ccc(OCCCO)cc2)O[C@@H]1c1ccccc1 : its composite z-score reads 1.87
